Test: clearance of mutant huntingtin inclusions, primary screen, imaging, HeLa Exon1htt(103Q)mCFP, confocal imaging (AID 853);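 also: cells exposed to compound for three days before fixation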
Conditions: aggregate imaging, at 1.5 µM; measured here: aggregate grain fluorescence fraction, stronger effect = lower value
The campaign covered roughly 47,000 compounds. About 200 (0.43%) were called active. Roughly 1% stayed inconclusive and do not appear here. Only a selection was taken, and actives are over-represented in it overall.
Note to self: class = bucket of fraction fluorescence in grains, per low end (below 20), middle (20 to below 30), high end (30 or more)

{"columns": ["compound", "class"],
 "data": [
  ["COc1cccc(OC)c1C(=O)Nc1ccc(N2CCCCC2)cc1", "low end"],
  ["C#CCSc1nnc(-c2sc3ccccc3c2Cl)o1", "high end"],
  ["Cn1cnc2c1c(=O)n(Cc1c(Cl)cccc1Cl)c(=O)n2C", "middle"],
  ["Cc1ccc(C(=O)N/C(=C/C=C/c2ccccc2)C(=O)NCc2ccco2)cc1", "high end"],
  ["Cc1ccc2cc(CCNC(=O)c3ccc4c(c3)OCO4)c(=O)[nH]c2c1", "high end"]
]}

For the next question, use this compound.
Query block: Hello team, could you let me know which band the following compound falls into: `Cc1ccc(-n2c(=O)cc(N3CCN(Cc4ccccc4)CC3)[nH]c2=O)cc1`
Result block: high end

---

Assay: clearance of mutant huntingtin inclusions, primary screen, imaging, HeLa Exon1htt(103Q)mCFP, confocal imaging (AID 853);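 also: cells exposed to compound for three days before fixation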
Conditions: aggregate imaging, at 1.5 µM; stronger effect = higher value, zero = plate's median compound well
The campaign covered roughly 47,000 compounds. About 200 (0.43%) were called active. Roughly 1% stayed inconclusive and do not appear here. This excerpt belongs to a sample that is enriched for actives.
# inhibition >= 10% gives Yes, anything below gives No

{"columns": ["compound", "class"],
 "data": [
  ["CC(C)C[C@H](NC(=O)NCCc1ccc(Cl)cc1)C(=O)O", "Yes"],
  ["Cc1ccc(-n2c(=O)cc(N3CCN(Cc4ccccc4)CC3)[nH]c2=O)cc1", "No"]
]}

Query block: Hi, just wondering whether `CCCC(=O)Nc1nc2ccc(NC(=O)c3cccnc3)cc2s1` shows inhibition of 10% or higher.
Result block: No

Query block: Does COc1ccc(C(C#N)Nc2ccccc2C)cc1 (stereo unspecified) have a reported inhibition of at least 10%?
Result block: Yes

Query block: Check the entry `CCN(CC)CCNc1ccc(Cl)cc1[N+](=O)[O-]` : does inhibition equal or exceed 10%?
Result block: No

Query block: Given `O=C1/C(=C\Nc2ccccc2)CCN1c1ncccn1` , state whether its inhibition is at least 10%.
Result block: Yes

Query block: # bool: inhibition of CCC(=O)c1ccc(OCC(O)CN2CC(C)OC(C)C2)cc1 (stereo unspecified) >= 10%
Result block: Yes

Query block: hey, is inhibition for this one >= 10%? `O=c1[nH]c(=O)n(Cc2ccco2)c2c1C(C(F)(F)F)(C(F)(F)F)N=C(c1ccco1)N2`
Result block: Yes

Query block: Form field: inhibition at least 10%? Entry: CCC(c1nnnn1C1CCCC1)N(Cc1cccs1)Cc1cc2cccc(C)c2[nH]c1=O (stereo unspecified)
Result block: Yes

Query block: In plain terms: is recorded inhibition at least 10% for `CC(=O)N1CCN(c2cccc(C)c2C)CC1` ?
Result block: No

Query block: Determine whether this compound has inhibition no lower than 10%: `c1ccc(Nc2n[nH]nc2-c2ccccc2)cc1`
Result block: No

Query block: # bool: inhibition of `Cc1cccc(NC(=O)CSc2nc3c(c(=O)[nH]2)CCCC3)c1C` >= 10%
Result block: Yes

Query block: Please tell me: is the compound `Cn1c(SCC(=O)N2CCOCC2)nnc1-c1ccc(NC(=O)c2ccccc2F)cc1` at or over 10% in terms of inhibition?
Result block: No

Query block: Say whether `COc1ccc(C(=O)NC(=S)Nc2ccccc2N2CCN(S(C)(=O)=O)CC2)cc1OC` shows inhibition of 10% or more.
Result block: No

Query block: Could you tell me if the measured inhibition of Cc1nn(Cc2ccc(C(=O)N3N=C(C(F)F)CC3(O)C(F)F)cc2)c(C)c1[N+](=O)[O-] (stereo unspecified) reaches 10% or more?
Result block: No

Query block: Hi, just wondering whether `Cc1cccc(-c2nc3c(c(SCC(=O)N4CCOCC4)n2)CCCC3)c1` shows inhibition of 10% or higher.
Result block: No

---

This section presents molecules with their documented fraction fluorescence in grains values.
Test: clearance of mutant huntingtin inclusions, primary screen, imaging, HeLa Exon1htt(103Q)mCFP, confocal imaging (AID 853);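 also: cells exposed to compound for three days before fixation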
Settings: aggregate imaging, at 1.5 µM; measured here: aggregate grain fluorescence fraction, stronger effect = lower value
Among all 47,000 compounds or so, about 200 (0.43%) were called active. About 1% were inconclusive and are not listed. The list comes from a sample in which actives are over-represented; it also holds close analogues and randomly drawn compounds.
Give the figure by itself; no unit, no explanation.

{"columns": ["molecule", "fraction fluorescence in grains"],
 "data": [
  ["c1ccc(-c2noc(-c3cccs3)n2)nc1", 20.2],
  ["O=C(c1ccccc1)c1cc(-c2ccccn2)c(N2CCOCC2)s1", 30.5],
  ["Cc1ccc(NC(=O)CSCC(=O)N2CCOCC2)cc1", 29.1],
  ["COc1ccc(C(=O)NCCc2ccc(S(N)(=O)=O)cc2)cc1OC", 43.5],
  ["O=C(CSc1nnc(-c2cccs2)n1-c1ccccc1)NCc1ccco1", 19.3],
  ["O=C(CN1CCOCC1)Nc1c(-c2ccccc2)c2cc(Br)ccc2[nH]c1=O", 37.2],
  ["Oc1c(C(c2cccs2)N2CCN(c3ccc(F)cc3)CC2)sc2ncnn12 (configuration not stated)", 72.5],
  ["COc1cc(C2CC(=O)c3cnc(NC(C)=O)nc3C2)cc(OC)c1OC (configuration not stated)", 28.1]
]}

Query block: Sample `CN(C)/C=C(\C#N)C(=O)c1cccnc1Oc1cccc(F)c1` — what was its fraction fluorescence in grains?
Result block: 38.8

Query block: Which fraction fluorescence in grains value is on record for `CC(C)C[C@H](NC(=O)NCCc1ccc(Cl)cc1)C(=O)O` ?
Result block: 16.2

---

Assay: clearance of mutant huntingtin inclusions, primary screen, imaging, HeLa Exon1htt(103Q)mCFP, confocal imaging (AID 853);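 also: cells exposed to compound for three days before fixation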
Settings: aggregate imaging, at 1.5 µM; measured here: aggregate grain fluorescence fraction, stronger effect = lower value
The campaign covered roughly 47,000 compounds. About 200 (0.43%) were called active. Inconclusive results (about 1%) are left out. The sample holds actives, similar compounds and a random draw of the others, so the mix is not that of the screen.
resultType: fraction fluorescence in grains
Format: numeric value only, no unit, no commentary.

{"columns": ["compound", "measuredNumber"],
 "data": [
  ["Cc1cccc(N(C(=O)Cc2cccs2)C(C(=O)NC2CCCC2)c2ccsc2)c1 (configuration not stated)", 20.3],
  ["Cc1ccccc1CS(=O)(=O)CC1(O)CCN(C(=O)c2cccc(C(F)(F)F)c2)CC1", 32.9],
  ["O=C(CSc1nnc(-c2cccs2)n1Cc1ccccc1)N1CCc2ccccc2C1", 52.6],
  ["Cc1sc2nc(SCC(N)=O)n(C)c(=O)c2c1C", 18.7],
  ["C[C@H](NC(=O)NCCc1ccccc1)C(=O)O", 5.06],
  ["CC(Sc1nnc(Cc2ccc([N+](=O)[O-])cc2)o1)C(N)=O (configuration not stated)", 30.7],
  ["Cc1nnc(OCC(=O)NCCC2=CCCCC2)c2ccccc12", 30.6],
  ["Cc1ccccc1NC(=O)c1ccccc1NS(=O)(=O)c1cccc2cccnc12", 11.2],
  ["CSCC[C@H](NC(=O)NCCc1ccc(F)cc1)C(=O)O", 15.6],
  ["CC(C)c1ccc(NC(=O)CCN2C(=O)c3ccc([N+](=O)[O-])cc3C2=O)cc1", 13.6]
]}

Query block: What measured fraction fluorescence in grains goes with `COc1ccc(N(CC(=O)NC2CCCCC2)C(=O)CNC(=O)c2ccco2)c(OC)c1` ?
Result block: 22.1

Query block: Requested field: fraction fluorescence in grains. Item: `CCOC(=O)C1CCN(Cc2coc3ccc(Cl)cc3c2=O)CC1`
Result block: 22.3
